Test system: EKVX NSCLC
experiment notes: NCI tumour cell line growth inhibition, 48 h
reported property: GI50

>>> assay_result("CC(C)(Oc1cccc(N2CCC[C@@H](C(=O)N(Cc3ccc(-c4cn[nH]c4)cc3)C3CC3)C2)c1)C(=O)N1CCNCC1")
"13.7 µM"

###

Tested on: CAKI-1 renal
experiment notes: NCI tumour cell line growth inhibition, 48 h; in the data active means GI50 below about 0.43 µM; inactive means the rest
Classes used: active, inactive

>>> assigned_category("CCNCCS(=O)(=O)NC[C@@]1(c2ccccc2)SC(NC(=O)C(C)(C)C)=NN1C(=O)C(C)(C)C")
"inactive"
>>> assigned_category("Oc1ccc(/C=N/NC(=S)Nc2ccccc2)nc1")
"inactive"
>>> assigned_category("Fc1ccc(C2CC(c3cccc(Nc4ccncc4)c3)=NN2c2ccccc2)cc1 (stereo not given)")
"inactive"
>>> assigned_category("CC[C@@]1(O)C(=O)OCc2c1cc1n(c2=O)Cc2cc3cc(O)ccc3nc2-1")
"active"
>>> assigned_category("CC(C)N(CCNc1nc(C(Cl)(Cl)Cl)nc2cc(Cl)ccc12)C(C)C")
"inactive"

###

Test system: MALME-3M melanoma
experiment notes: NCI tumour cell line growth inhibition, 48 h
# TGI per record follows
reported property: TGI (µM)

>>> assay_result("CC[C@]1(O)CC2CN(CCc3c([nH]c4ccccc34)C(C(=O)OC)(c3cc4c(cc3OC)N(C=O)[C@H]3[C@@](O)(C(=O)OC)[C@H](OC(C)=O)[C@]5(CC)[C@@H]6C[C@@H]6CN6CC[C@]43[C@@H]65)C2)C1 (some centres undefined)")
17.9
>>> assay_result("COc1ccc(/C(=N/Nc2nc3ccccc3n2Cc2ccccc2)C(=O)O)cc1")
91.7
>>> assay_result("COC(=O)C1C(=O)C(C(=O)OC)C2CCC1N2C (centres undefined)")
51.9
>>> assay_result("Cc1cc(N(CCC#N)CCC#N)ccc1/C(Sc1ccccc1)=C(\\NC(=O)/C=C/c1ccccc1)C(=O)Sc1ccccc1")
25

###

Test system: NCI-H23 lung
experiment notes: NCI tumour cell line growth inhibition, 48 h
reported property: TGI

>>> assay_result("Cc1cc2c(cc1Cl)SC(NNC(=O)c1ccccc1)=NS2(=O)=O")
"> 10 µM"
>>> assay_result("C#CC(O)/C=C/C(O)CCCC(O)CC#CC(O)C#CCCCCC(O)/C=C/CCCCCC(=O)CCCCCCCCCCCCCC(O)C(O)C#CC(=O)O (stereo not given)")
"> 25 µM"
>>> assay_result("NN/C(=N\\S(=O)(=O)c1cc(S(=O)(=O)c2ccccc2)cs1)Nc1ccc(Cl)cc1")
"> 100 µM"
>>> assay_result("O=C1NC(=NCCc2ccccc2F)S/C1=C\\c1ccc2ncccc2c1")
"> 25 µM"
>>> assay_result("COc1cc2c3c(n(CCCNCCCCN)c(=O)c2cc1OC)-c1cc2c(cc1C3=O)OCO2")
"10.7 µM"

###

# TGI per record follows
Tested on: 786-0 renal
experiment notes: NCI tumour cell line growth inhibition, 48 h
reported property: TGI (µM)

>>> assay_result("C[Si](C)(C)CCOCN(C(=O)C1=CCC2(CC1)OCCO2)c1ccccc1I")
39.8
>>> assay_result("Cc1cc2c3c(nc4ccccc42)C(=O)c2cccnc2-c3n1")
0.823
>>> assay_result("Cc1c(Br)c(Br)c2c3c1nc(N1CCNCC1)n3CCC2")
7.33
>>> assay_result("COc1cc2c3c(n(CCCNCCCCN)c(=O)c2cc1OC)-c1cc2c(cc1C3=O)OCO2")
20.5
>>> assay_result("CC(/C=C/c1ccccc1)=N\\NC(=S)N/N=C(C)/C=C/c1ccccc1")
29.5
>>> assay_result("[pH]1p2[pH]p3p1p3[pH]2.c1cc[c]([Ge]([c]2ccccc2)[c]2ccccc2)cc1.c1cc[c]([Ge]([c]2ccccc2)[c]2ccccc2)cc1.c1cc[c]([Ge]([c]2ccccc2)[c]2ccccc2)cc1")
32.3
>>> assay_result("O=S(=O)(Cc1ccccc1)c1nnc(S(=O)(=O)c2ccc(Cl)cc2)s1")
49.5
>>> assay_result("O=C(Cc1csc2[n+]1C(=O)/C(=C/c1ccc(Cl)cc1)S2)Nc1ccccc1")
90.9
>>> assay_result("Cc1cc(N(CCC#N)CCC#N)ccc1/C(Sc1ccccc1)=C(\\NC(=O)/C=C/c1ccccc1)C(=O)Sc1ccccc1")
8.8
>>> assay_result("O=C(CNc1ccc([N+](=O)[O-])cc1)Nn1c(-c2ccccc2)nc2ccccc2c1=O")
6.26
>>> assay_result("COC(=O)c1cc(C#N)[nH]c1-c1ccc(Br)s1")
27.7
>>> assay_result("C/C=C(/C)C(=O)OC1C=C(CO)C(=O)C(OC(=O)C2(C)OC2C)C1C(C)C (stereo not given)")
3.24
>>> assay_result("CCN(CC)CCOc1ccc(/C(=C(\\C)Cc2ccc(OC)cc2)c2ccc(O)cc2)cc1")
3
>>> assay_result("O=[N+]([O-])c1ccc(C2=NOC(c3ccccc3)N2C23CC4CC(CC(C4)C2)C3)cc1 (stereo not given)")
57.9
>>> assay_result("CC(C)(C)c1cc(Cc2ccc(S(C)(=O)=O)cc2)c(O)c(C(C)(C)C)c1")
29.6
>>> assay_result("C=C1C(=O)O[C@H]2C(=O)[C@H](C)CCC/C(C)=C/CC[C@@]3(C)O[C@@H]3C[C@@H]12")
3.02

###

System: A498 renal
experiment notes: NCI tumour cell line growth inhibition, 48 h
# TGI per record follows
reported property: TGI (µM)

>>> assay_result("COc1cc2c3c(n(CCCNCCCCN)c(=O)c2cc1OC)-c1cc2c(cc1C3=O)OCO2")
21
>>> assay_result("C=C1C(=O)O[C@H]2C(=O)[C@H](C)CCC/C(C)=C/CC[C@@]3(C)O[C@@H]3C[C@@H]12")
32.8
>>> assay_result("Cc1cc(NS(=O)(=O)c2ccc(-c3cnc(C4CC4)o3)cc2)ccc1Cl")
0.676
>>> assay_result("C=CCc1cc(OC)c(O)c(C(=O)/C=C/c2ccc(OC)c(OC)c2)c1")
39.7
>>> assay_result("CC(C)(Oc1cccc(N2CCC[C@@H](C(=O)N(Cc3ccc(-c4cn[nH]c4)cc3)C3CC3)C2)c1)C(=O)N1CCNCC1")
30.1

###

Tested on: UACC-257 melanoma
experiment notes: NCI tumour cell line growth inhibition, 48 h
reported property: TGI

>>> assay_result("Cc1c(C(=O)/C=C/c2ccc([N+](=O)[O-])cc2)[n+](=O)c2ccccc2n1[O-]")
"> 100 µM"
>>> assay_result("O=C1CC[C@@H](S(=O)(=O)c2ccccc2)[C@H](/C=C/c2ccccc2)O1")
"> 100 µM"
>>> assay_result("O=C(CC(O)(C(F)(F)F)C(F)(F)F)c1cccs1")
"> 10 µM"
>>> assay_result("CCN(CC)CC(C(C)=O)C(c1ccccc1)c1c(O)c2ccccc2oc1=O (stereo not given)")
"> 100 µM"
>>> assay_result("Cc1ncnc2c1ccn2[C@@H]1C[C@H](Oc2cc(C(F)F)c(F)c3c2CNCC3)[C@@H](O)[C@H]1O")
"> 100 µM"
>>> assay_result("CCOC(=O)C1(C)C2=CC=C(O2)C(C)(C)C2=CC=C(O2)C(C)(C)C2=CC=C(O2)C(C)(C)C2=CC=C1O2")
"> 100 µM"
>>> assay_result("COC1(OC)CCCCCCCCC(OC)(OC)CCCCCCCC1")
"> 100 µM"
>>> assay_result("O=C(Nc1ccc(C(F)(F)F)cc1[N+](=O)[O-])C(=O)Nn1c(=S)[nH]c2ccccc2c1=O")
"> 100 µM"
>>> assay_result("N#Cc1c(-c2ccccc2)nc(SCC(O)CN2CCOCC2)nc1N1CCOCC1 (stereo not given)")
"45.7 µM"
>>> assay_result("Nc1nc(N)c(N=Nc2ccccc2)c(=O)[nH]1")
"> 100 µM"
>>> assay_result("CCCCCCCCCCCCCCCC(=O)OCC1OC(OCCCC)[C@H](O[C@@H]2OC(C)C(OC(=O)CCC)C(O)C2O)C(O)C1O (stereo not given in full)")
"61.4 µM"
>>> assay_result("C=C1C(=O)O[C@H]2C(=O)[C@H](C)CCC/C(C)=C/CC[C@@]3(C)O[C@@H]3C[C@@H]12")
"11.7 µM"
>>> assay_result("COC1=CC(=O)C2=C(C1=O)[C@H]1CC[C@]3(C)C(=O)CC[C@H]3[C@@H]1CC2")
"58.7 µM"
>>> assay_result("CC1CCC2C(C)C(OC(=O)CCC(=O)O)OC3OC4(C)CCC1C32OO4 (stereo not given)")
"> 100 µM"
>>> assay_result("Cc1ccc2c(-c3ccnc(Nc4cccc(C(F)(F)F)c4)n3)c(-c3ccccc3)nn2n1")
"> 16.6 µM"
>>> assay_result("O=C(O)C1CC[N-]CC1.O=C(O)C1CC[N-]CC1.[NH2-].[NH2-].[Pt+4]")
"> 100 µM"
>>> assay_result("C=C(C)C1Cc2c(cc3c(c2O)c(=O)c2ccccc2n3C)O1 (stereo not given)")
"30.7 µM"
>>> assay_result("O=c1c2c3c(sc2nc2n1sc1nc4sc5c(c4c(=O)n12)CCCC5)CCCC3")
"> 100 µM"
>>> assay_result("CSc1ncc2c(C#N)c3n(C)c4ccccc4n3c(=O)c2n1")
"> 100 µM"
>>> assay_result("COc1ccc(/C(=N/Nc2nc3ccccc3n2Cc2ccccc2)C(=O)O)cc1")
"> 100 µM"
